This collection of values is drawn from PubChem BioAssay.

Catalogue of composite z-score readings, one per entry.
# target: Carbonic anhydrase 2 (Homo sapiens)
# measurement-description: compounds binding carbonic anhydrase 2 – biochemical, small-molecule microarray, Alexa647-labelled CAII, profiling panel (AID 1122)
# assay-conditions: CAII-A647 binding fluorescence, higher = more signal
Quick one: just the number, no unit, thanks!

Reference set (5 entries):
[
  {
    "compound": "CCOc1cc(C(O)C2C=CC3C(=O)NC(=O)C3N2Nc2ccccn2)ccc1O (stereo not drawn)",
    "measured-attribute": "composite z-score",
    "measurement": 0.121
  },
  {
    "compound": "C=C[C@@H](O)[C@H]1CC(c2ccccc2)=NO1",
    "measured-attribute": "composite z-score",
    "measurement": -0.0997
  },
  {
    "compound": "[N-]=[N+]=Nc1ccccc1[C@H]1OC(c2ccc(OCCCO)cc2)=N[C@@]1(Cc1ccccc1)C(=O)NCc1ccccc1",
    "measured-attribute": "composite z-score",
    "measurement": 0.497
  },
  {
    "compound": "C=CC[C@]1(C(=O)NCC(O)CO)N=C(c2ccc(OCCCO)cc2)O[C@H]1c1ccccc1N=[N+]=[N-] (stereo partly drawn)",
    "measured-attribute": "composite z-score",
    "measurement": 0.766
  },
  {
    "compound": "CN(C)C(=O)[C@@]1(Cc2ccccc2N=[N+]=[N-])N=C(c2ccc(OCCCO)cc2)O[C@H]1c1ccccc1N=[N+]=[N-]",
    "measured-attribute": "composite z-score",
    "measurement": 0.565
  }
]

Briefly, composite z-score measured for `CCCC[C@@H](O)C1=C(COc2ccccc2)Cn2c(=O)n(-c3ccccc3)c(=O)n2[C@H]1CO` : -0.0781

Briefly, composite z-score measured for `CCCC=C(CCC)[C@@H](NS(=O)(=O)c1cccc2cccnc12)c1ccc(C(=O)OC)cc1` : 0.771

Briefly, composite z-score measured for Cc1cc(C)c(C(O)C2C=CC3C(=O)N(c4ccccc4)C(=O)C3N2Nc2ccc([N+](=O)[O-])cc2)c(C)c1 (stereo not drawn) : 0.643

----------
# target: Albumin (Bos taurus) (UniProt P02769)
# Sequence (P02769 whole entry, looked up): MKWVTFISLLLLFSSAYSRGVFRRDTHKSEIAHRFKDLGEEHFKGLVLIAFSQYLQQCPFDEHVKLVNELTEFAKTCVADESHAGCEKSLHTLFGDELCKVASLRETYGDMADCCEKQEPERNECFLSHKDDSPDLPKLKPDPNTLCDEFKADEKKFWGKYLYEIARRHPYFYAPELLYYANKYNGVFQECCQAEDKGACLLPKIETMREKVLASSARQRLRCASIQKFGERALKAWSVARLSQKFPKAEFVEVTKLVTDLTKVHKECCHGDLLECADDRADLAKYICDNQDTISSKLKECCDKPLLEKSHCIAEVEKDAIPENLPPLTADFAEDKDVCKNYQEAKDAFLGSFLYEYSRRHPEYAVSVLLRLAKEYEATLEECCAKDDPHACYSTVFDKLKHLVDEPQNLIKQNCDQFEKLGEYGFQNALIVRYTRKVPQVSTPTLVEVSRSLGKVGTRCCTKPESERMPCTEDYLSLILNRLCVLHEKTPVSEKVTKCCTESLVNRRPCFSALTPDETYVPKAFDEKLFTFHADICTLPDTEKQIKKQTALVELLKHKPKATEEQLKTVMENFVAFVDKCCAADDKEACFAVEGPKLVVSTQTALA
# measurement-description: compounds binding labelled BSA control protein – biochemical, small-molecule microarray, Alexa647 label, 635/667 nm fluorescence, artefact control for SMM control protein annotation, profiling panel (AID 1118);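 also: score merges 667 nm emission intensity and signal-to-noise per printed compound spot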
# assay-conditions: BSA-A647 binding, fluorescence 635 nm, higher = more signal
measured-attribute: composite z-score
Quick one: just the number, no unit, thanks!

Reference set (3 entries):
[
  {
    "molecule": "O=C(C=C(CC(O)c1cccc(Cl)c1)OCCF)OCCF (stereo not given)",
    "target": "Albumin (Bos taurus) (UniProt P02769)",
    "composite z-score": 0.912
  },
  {
    "molecule": "COC(=O)[C@@]1(Cc2ccc(F)cc2)[C@H]2c3cc(C(=O)N(C)C)n(CCSCCO)c3C[C@H]2CN1C(=O)c1ccccc1",
    "target": "Albumin (Bos taurus) (UniProt P02769)",
    "composite z-score": 1.04
  },
  {
    "molecule": "CCCNC(=O)[C@@H]1c2ccccc2C(=O)N(CC23CC4CC(CC(C4)C2)C3)[C@H]1c1ccc(CO)cc1",
    "target": "Albumin (Bos taurus) (UniProt P02769)",
    "composite z-score": 0.472
  }
]

Briefly, composite z-score measured for `COc1ccc([Si](C)(C)[C@H]2[C@H](CC(=O)N3CCC[C@H]3CO)O[C@@]3(C(=O)N(Cc4ccc(N5C(=O)c6cccc7cccc5c67)cc4)c4ccccc43)[C@@H]2C)cc1` : 0.121

Briefly, composite z-score measured for CC(C)CCC[C@@H](C)[C@H]1CC[C@@]2(C)C3=C(CC[C@]12C)[C@@]1(C)CC[C@H](OC(=O)C(C)(C)C)C(C)(C)C1CC3 (stereo not given in full) : -0.0648

Briefly, composite z-score measured for `COCCCNC(=O)[C@]1(Cc2ccccc2CN=[N+]=[N-])N=C(c2ccc(OCCCO)cc2)O[C@@H]1c1ccccc1CN=[N+]=[N-]` : 0.864

Briefly, composite z-score measured for `C/C=C/[C@@H](CCn1cc([C@H](O)c2ccccc2)nn1)[Si](C)(C)c1ccc(OC)cc1` : -0.91

Briefly, composite z-score measured for `COCC(=C=CC[C@@H](O)c1ccccc1OCCO)C[C@@H](O)COCc1ccccc1` : 0.521
